- System: KYSE-140 (Esophageal Squamous Cell Carcinoma)
- procedure details: Bliss excess, mean over the matrix (fraction); higher = more synergy
Could you please report measured Bliss excess for the items listed next?
The reply should be a number, written without any unit.

Entry under test: CN(CCO)CC[C@H](CSc1ccccc1)Nc1ccc(S(=O)(=O)NC(=O)c2ccc(N3CCC([C@@H](O)c4ccccc4-c4ccc(Cl)cc4)CC3)cc2)cc1S(=O)(=O)C(F)(F)F [AZD4320] + C[C@@H]1COCCN1C2=NC(=NC(=C2)C3(CC3)[S@](=N)(=O)C)C4=C5C=CNC5=NC=C4 [AZD6738] (first compound max 1 µM, 7x7, partner max 10 µM) . Its Bliss excess was -0.0299

Entry under test: COc1nnc2ccc(N3CCC(c4ccc(OCCN5CCN(C)C(=O)[C@H]5C)cc4)CC3)nn12 [AZD5153] + CCN(CCO)CCCOc1ccc2c(Nc3cc(CC(=O)Nc4cccc(F)c4)[nH]n3)ncnc2c1 [AZD2811] (first compound max 1 µM, 7x7, partner max 1 µM) . Its Bliss excess was -0.0087

Entry under test: C=CCn1c(=O)c2cnc(Nc3ccc(N4CCN(C)CC4)cc3)nc2n1-c1cccc(C(C)(C)O)n1 [AZD1775] + C[C@@H]1COCCN1C2=NC(=NC(=C2)C3(CC3)[S@](=N)(=O)C)C4=C5C=CNC5=NC=C4 [AZD6738] (first compound max 1 µM, partner max 10 µM) . Its Bliss excess was 0.0259

Entry under test: Cn1cnc2c(F)c(Nc3ccc(Br)cc3Cl)c(C(=O)NOCCO)cc21 [Selumetinib] + C=CCn1c(=O)c2cnc(Nc3ccc(N4CCN(C)CC4)cc3)nc2n1-c1cccc(C(C)(C)O)n1 [AZD1775] (first compound max 10 µM, partner max 1 µM) . Its Bliss excess was -0.0514

###

- Test system: UACC-812 (Breast Carcinoma)
- procedure details: combination Emax (second highest fraction inhibited in the dose matrix, 72 h); higher = more inhibition; extreme values may be limits of the assay
Could you please report measured combination Emax for the items listed next?
The reply should be a number, written without any unit.

// assay UACC-812 (Breast Carcinoma), entry C=CCn1c(=O)c2cnc(Nc3ccc(N4CCN(C)CC4)cc3)nc2n1-c1cccc(C(C)(C)O)n1 [AZD1775] + O=C(c1cc(Cc2n[nH]c(=O)c3ccccc23)ccc1F)N1CCN(C(=O)C2CC2)CC1 [Olaparib] (first compound max 1 µM, partner max 10 µM) , combination Emax value = 0.14

// assay UACC-812 (Breast Carcinoma), entry CC1(C)CCC(CN2CCN(c3ccc(C(=O)NS(=O)(=O)c4ccc(NCC5CCOCC5)c([N+](=O)[O-])c4)c(Oc4cnc5[nH]ccc5c4)c3)CC2)=C(c2ccc(Cl)cc2)C1 [Venetoclax] + C[C@@H]1COCCN1C2=NC(=NC(=C2)C3(CC3)[S@](=N)(=O)C)C4=C5C=CNC5=NC=C4 [AZD6738] (first compound max 1 µM, 7x7, partner max 10 µM) , combination Emax value = 0.29

// assay UACC-812 (Breast Carcinoma), entry Cn1cnc2c(F)c(Nc3ccc(Br)cc3Cl)c(C(=O)NOCCO)cc21 [Selumetinib] + C=CCn1c(=O)c2cnc(Nc3ccc(N4CCN(C)CC4)cc3)nc2n1-c1cccc(C(C)(C)O)n1 [AZD1775] (first compound max 10 µM, partner max 1 µM) , combination Emax value = 0.138

###

- System: DMS-53 (Small Cell Lung Carcinoma)
- procedure details: Bliss excess, mean over the matrix (fraction); higher = more synergy
reported property: Bliss excess
The reply should be a number, written without any unit.

// assay DMS-53 (Small Cell Lung Carcinoma), entry Cc1c2c(nn1C)CSCc1cc(n(C)n1)CSc1cc(c3ccccc3c1)OCCCc1c(C(=O)O)n(C)c3c-2c(Cl)ccc13 [AZD5991] + Cn1cnc2c(F)c(Nc3ccc(Br)cc3Cl)c(C(=O)NOCCO)cc21 [Selumetinib] (first compound max 1 µM, 7x7, partner max 3 µM) , Bliss excess value = 0.0572

// assay DMS-53 (Small Cell Lung Carcinoma), entry Cc1cc2ncnn2cc1Nc1ncc2c(n1)n(C1CCOCC1)c(=O)n2C [AZD7648] + C[C@@H]1COCCN1C2=NC(=NC(=C2)C3(CC3)[S@](=N)(=O)C)C4=C5C=CNC5=NC=C4 [AZD6738] (first compound max 10 µM, 7x7, partner max 10 µM) , Bliss excess value = 0.0179

// assay DMS-53 (Small Cell Lung Carcinoma), entry CN(C)CCCOc1ccc(-c2ccc3ncc4c(c3c2)n(C2CCOCC2)c(=O)n4C)cn1 [AZD0156] + C=CCn1c(=O)c2cnc(Nc3ccc(N4CCN(C)CC4)cc3)nc2n1-c1cccc(C(C)(C)O)n1 [AZD1775] (first compound max 1 µM, partner max 1 µM) , Bliss excess value = -0.028

// assay DMS-53 (Small Cell Lung Carcinoma), entry CC1(C)CCC(CN2CCN(c3ccc(C(=O)NS(=O)(=O)c4ccc(NCC5CCOCC5)c([N+](=O)[O-])c4)c(Oc4cnc5[nH]ccc5c4)c3)CC2)=C(c2ccc(Cl)cc2)C1 [Venetoclax] + Cn1cnc2c(F)c(Nc3ccc(Br)cc3Cl)c(C(=O)NOCCO)cc21 [Selumetinib] (first compound max 1 µM, 7x7, partner max 3 µM) , Bliss excess value = 0.0543

###

- Test system: IM-9 (Non-Cancerous)
- procedure details: Bliss excess, mean over the matrix (fraction); higher = more synergy
reported property: Bliss excess
The reply should be a number, written without any unit.

Entry under test: NC1(C(=O)N[C@@H](CCO)c2ccc(Cl)cc2)CCN(c2ncnc3[nH]ccc23)CC1 [Capivasertib] + Cn1cnc2c(F)c(Nc3ccc(Br)cc3Cl)c(C(=O)NOCCO)cc21 [Selumetinib] (first compound max 10 µM, 7x7, partner max 10 µM) . Its Bliss excess was -0.0169

Entry under test: CC1(C)CCC(CN2CCN(c3ccc(C(=O)NS(=O)(=O)c4ccc(NCC5CCOCC5)c([N+](=O)[O-])c4)c(Oc4cnc5[nH]ccc5c4)c3)CC2)=C(c2ccc(Cl)cc2)C1 [Venetoclax] + CN(C)CCCOc1ccc(-c2ccc3ncc4c(c3c2)n(C2CCOCC2)c(=O)n4C)cn1 [AZD0156] (first compound max 1 µM, 7x7, partner max 1 µM) . Its Bliss excess was 0.0254

Entry under test: COc1cccc(OCCCN)c1-c1cc(Nc2cnc(C#N)cn2)n[nH]1 [Prexasertib] + C=CCn1c(=O)c2cnc(Nc3ccc(N4CCN(C)CC4)cc3)nc2n1-c1cccc(C(C)(C)O)n1 [AZD1775] (first compound max 1 µM, partner max 1 µM) . Its Bliss excess was 0.0644

Entry under test: CC(=O)c1c(C)c2cnc(Nc3ccc(N4CCNCC4)cn3)nc2n(C2CCCC2)c1=O [Palbociclib] + Cn1cnc2c(F)c(Nc3ccc(Br)cc3Cl)c(C(=O)NOCCO)cc21 [Selumetinib] (first compound max 10 µM, 7x7, partner max 10 µM) . Its Bliss excess was 0.0248

Entry under test: C=CCn1c(=O)c2cnc(Nc3ccc(N4CCN(C)CC4)cc3)nc2n1-c1cccc(C(C)(C)O)n1 [AZD1775] + CCc1c2c(nc3ccc(O)cc13)-c1cc3c(c(=O)n1C2)COC(=O)[C@]3(O)CC [SN-38] (first compound max 1 µM, partner max 0.3 µM) . Its Bliss excess was 0.0003

Entry under test: C[C@@H](Nc1cc(F)cc(F)c1)c1cc(C(=O)N(C)C)cc2c(=O)cc(N3CCOCC3)oc12 [AZD8186] + CC(=O)c1c(C)c2cnc(Nc3ccc(N4CCNCC4)cn3)nc2n(C2CCCC2)c1=O [Palbociclib] (first compound max 10 µM, 7x7, partner max 10 µM) . Its Bliss excess was 0.112

Entry under test: CCc1c2c(nc3ccc(O)cc13)-c1cc3c(c(=O)n1C2)COC(=O)[C@]3(O)CC [SN-38] + CN(C)CCCOc1ccc(-c2ccc3ncc4c(c3c2)n(C2CCOCC2)c(=O)n4C)cn1 [AZD0156] (first compound max 0.3 µM, 7x7, partner max 1 µM) . Its Bliss excess was 0.0891

###

- Test system: CESS (Acute Myeloid Leukemia)
- procedure details: Bliss excess, mean over the matrix (fraction); higher = more synergy
Could you please report measured Bliss excess for the items listed next?

Entry under test: Cc1c2c(nn1C)CSCc1cc(n(C)n1)CSc1cc(c3ccccc3c1)OCCCc1c(C(=O)O)n(C)c3c-2c(Cl)ccc13 [AZD5991] + C[C@@H](Nc1cc(F)cc(F)c1)c1cc(C(=O)N(C)C)cc2c(=O)cc(N3CCOCC3)oc12 [AZD8186] (first compound max 1 µM, 7x7, partner max 3 µM) . Its Bliss excess was -0.0325

Entry under test: C=CCn1c(=O)c2cnc(Nc3ccc(N4CCN(C)CC4)cc3)nc2n1-c1cccc(C(C)(C)O)n1 [AZD1775] + C[C@@H]1COCCN1C2=NC(=NC(=C2)C3(CC3)[S@](=N)(=O)C)C4=C5C=CNC5=NC=C4 [AZD6738] (first compound max 1 µM, partner max 10 µM) . Its Bliss excess was 0.0388
